The following binders are listed with their measured Kd values.
molecular target: CXCL2 (human, UniProt P19875 35-107); assay: BLI
A number alone suffices; assume nM.

Solved entries:
>  <binder>
P1142 (natural protein, glycosylated (periodic acid–Schiff staining)) DGGKPQILQRTDHSTDSDWDPQMCPETCNPSKNISCSSECLCVTLGGGDETGTCFNMSGVDWLGHAQASDGHNDGGGASAWSHPQFEKLEHHHHHHHH

>  <Kd (nM)>
2.14

$$$$
>  <binder>
P1078_IXORI (natural protein) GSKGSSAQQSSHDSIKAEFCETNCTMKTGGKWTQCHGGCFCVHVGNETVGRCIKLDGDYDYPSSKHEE

>  <Kd (nM)>
68.3

$$$$
>  <binder>
P1124_IXORI (natural protein) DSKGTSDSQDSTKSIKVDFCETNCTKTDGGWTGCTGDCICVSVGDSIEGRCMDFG

>  <Kd (nM)>
13.8

$$$$
>  <binder>
P1104 (natural protein, also: glycosylated) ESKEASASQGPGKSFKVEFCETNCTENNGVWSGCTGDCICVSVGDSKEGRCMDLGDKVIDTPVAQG

>  <Kd (nM)>
82.3

$$$$

Next item in the queue.
Input: Returns the measured Kd for the input binder. Input: Evasin 3 (EVA3) (natural protein, also: glycosylated) DGGLVSTIESRTSGDGADNFDVVSCNKNCTSGQNECPEGCFCGLLGQNKKGHCYKIIGNLSGEPPVVRR
Output: 7.49
